Recorded values, source patent US20200079833A1.

Quick reference: cAMP Primary assay EC50, Mean pM GLP-1R of the listed items.
target: GLP-1 receptor (GLP-1R), primary cAMP assay cell line (human, UniProt P43220 24-463); assay: cell-based or functional assay
Starred links: 1 amine or outer side, 2 acyl side, 3 side chain; linkers in the order of their positions; H or OH if unused. Non-standard residues stand in square brackets, D forms with d. Groups on a side chain read outwards from the residue. Primed or numbered codes have the meaning given here. No end group written: not given here. *: point of attachment. γGlu = O=C(O)[C@H](CCC(=O)[*:2])N[*:1]; αMeF = C[C@](N)(Cc1ccccc1)C(=O)O; αMeK = C[C@](N)(CCCCN)C(=O)O; Lauroyl = CCCCCCCCCCCC(=O)*; αMeS = C[C@](N)(CO)C(=O)O; PEG2′ = not defined here; Aib = CC(C)(N)C(=O)O
Provide the reading as a plain figure in pM.

Below are worked cases with known answers.
Binder | cAMP Primary assay EC50, Mean pM GLP-1R, pM
H[Aib]EGS[αMeF]TSDK([PEG2′-PEG2′-γGlu-Lauroyl])SSYLEGEAA[αMeK]K([PEG2′-PEG2′-γGlu-Lauroyl])FIAK([PEG2′-PEG2′-γGlu-Lauroyl])VVEGG-NH2 [SEQ ID NO: 458] | 41.4
H[Aib]EGS[αMeF]TSDV[αMeS]SYK([PEG2′-PEG2′-γGlu-Lauroyl])EK([PEG2′-PEG2′-γGlu-Lauroyl])EAA[αMeK]EFIK([PEG2′-PEG2′-γGlu-Lauroyl])FVVEGG-NH2 [SEQ ID NO: 451] | 93.4
H[Aib]EGS[αMeF]TSDV[αMeS]SYK([PEG2′-PEG2′-γGlu-Lauroyl])EGEAA[αMeK]K([PEG2′-PEG2′-γGlu-Lauroyl])FIK([PEG2′-PEG2′-γGlu-Lauroyl])FVVEGG-NH2 [SEQ ID NO: 454] | 43.7

Moving on to another binder below.
Ask: Return the recorded cAMP Primary assay EC50, Mean pM GLP-1R value; entry: H[Aib]EGS[αMeF]TSDV[αMeS]SYK([PEG2′-PEG2′-γGlu-Lauroyl])EGK([PEG2′-PEG2′-γGlu-Lauroyl])AA[αMeK]EFIAK([PEG2′-PEG2′-γGlu-Lauroyl])VVEGG-NH2 [SEQ ID NO: 468]
Result: 73.5
